target: kappa opioid receptor (OPRK1) (Homo sapiens (Human), UniProt P41145); experiment: OPRK1 antagonist assay (b-arrestin-2-TEV / b-lactamase reporter cell line, EC80 U-50488 challenge); type: cell-based; settings: read-out: IC50 nM (% inhib if other than 50%); antagonist mode vs EC80 U-50488; NA = not active at concentrations up to 10 μM
Sequence (P41145 whole entry): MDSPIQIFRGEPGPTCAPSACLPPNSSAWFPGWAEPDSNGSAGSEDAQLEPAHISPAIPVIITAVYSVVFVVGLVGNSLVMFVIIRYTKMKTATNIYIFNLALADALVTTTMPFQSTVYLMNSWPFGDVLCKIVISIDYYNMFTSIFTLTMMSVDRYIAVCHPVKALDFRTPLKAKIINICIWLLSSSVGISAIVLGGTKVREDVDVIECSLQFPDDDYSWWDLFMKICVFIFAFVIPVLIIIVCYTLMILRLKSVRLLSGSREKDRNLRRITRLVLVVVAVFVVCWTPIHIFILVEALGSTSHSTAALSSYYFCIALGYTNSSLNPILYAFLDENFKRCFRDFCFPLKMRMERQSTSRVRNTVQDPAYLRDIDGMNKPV
Recorded measurements of IC50, one per entry

- compound: "Cc1ccc2cc(-c3nc(C)no3)c(N3CC[C@@H](NC4CCCCC4)[C@H](O)C3)nc2c1 [compound 227]"
  IC50 [nM]: 7
- compound: "COC(=O)c1cc(I)cnc1N1CCC(NC2CCCCC2)C(CO)C1 (stereo not drawn) [compound 77]"
  IC50 [nM]: 11
- compound: "COC1CN(c2nc3cccc(F)c3cc2-c2nc(C)no2)CCC1NC1CCCCC1 (stereo not drawn) [compound 252]"
  IC50 [nM]: 12
- compound: "Cc1noc(-c2cc3ccccc3nc2N2CCC(NC3CCCCCC3)C(CO)C2)n1 (stereo not drawn) [compound 200]"
  IC50 [nM]: 14
- compound: "COC(=O)c1cc(Br)cnc1N1CCC(NC2CCCCC2)C(OC)C1 (stereo not drawn) [compound 73]"
  IC50 [nM]: 205
- compound: "COC(=O)c1cc(Br)cnc1N1CCC(NC2CCCCC2OC)C(CO)C1 (stereo not drawn) [compound 82]"
  IC50 [nM]: 127
- compound: "Cc1noc(-c2cc3cc(Cl)ccc3nc2N2CC[C@@H](NC3CCCCC3)[C@H](O)C2)n1 [compound 238]"
  IC50 [nM]: 38
- compound: "COC(=O)c1cc2ccccc2nc1N1CCC(NC2CCCCC2)C(OC)C1 (stereo not drawn) [compound 158]"
  IC50 [nM]: 431
- compound: "Cc1noc(-c2cc3ccccc3nc2N2CCC(NC3CCCC3)C(CO)C2)n1 (stereo not drawn) [compound 205]"
  IC50 [nM]: 17

----------
target: kappa opioid receptor (OPRK1) (Homo sapiens (Human)); test: OPRK1 antagonist assay (b-arrestin-2-TEV / b-lactamase reporter cell line, EC80 U-50488 challenge); assay type: cell-based; conditions: read-out: IC50 nM (% inhib if other than 50%); antagonist mode vs EC80 U-50488; NA = not active at concentrations up to 10 μM
parameterMeasured: log10 of IC50 (log10 of the value in nM)

- compound: "CCc1noc(-c2cc(Br)cnc2N2CC[C@@H](NC3CCCCC3)[C@H](O)C2)n1"
  targetEntity: "kappa opioid receptor (OPRK1) (Homo sapiens (Human))"
  log10 of IC50: 3.20
- compound: "COC(=O)c1cc(Br)cnc1N1CCC(NC2CCCCCC2)C(C(=O)OC)C1 (stereo not shown) [compound 118]"
  targetEntity: "kappa opioid receptor (OPRK1) (Homo sapiens (Human))"
  log10 of IC50: 2.82
- compound: "COC(=O)c1cc(Br)cnc1N1CCC(NC2CCCC2)CC1"
  targetEntity: "kappa opioid receptor (OPRK1) (Homo sapiens (Human))"
  log10 of IC50: 2.08
- compound: "CC(=O)c1cc(Br)cnc1N1CCC(NC2CCCCC2)CC1"
  targetEntity: "kappa opioid receptor (OPRK1) (Homo sapiens (Human))"
  log10 of IC50: 3.83
- compound: "Cc1ccc2cc(-c3nc(C)no3)c(N3CCC(NC4CCCCC4O)CC3)nc2c1 (stereo not shown)"
  targetEntity: "kappa opioid receptor (OPRK1) (Homo sapiens (Human))"
  log10 of IC50: 2.80
- compound: "Cc1nc(-c2cc3cc(C)c(F)cc3nc2N2CCC(N[C@H]3CCCC[C@@H]3O)CC2)no1"
  targetEntity: "kappa opioid receptor (OPRK1) (Homo sapiens (Human))"
  log10 of IC50: 1.68
- compound: "COC(=O)c1cc(Br)cnc1N1CCC(NC2CCCCC2OC)C(O)C1 (stereo not shown)"
  targetEntity: "kappa opioid receptor (OPRK1) (Homo sapiens (Human))"
  log10 of IC50: 1.56
- compound: "COC1CN(c2nnc(C)cc2C(=O)OC(C)C)CCC1NCC(C)C (stereo not shown)"
  targetEntity: "kappa opioid receptor (OPRK1) (Homo sapiens (Human))"
  log10 of IC50: 1.76
- compound: "COC(=O)c1cc(Cl)cnc1N1CCC(NC2CCCCC2)CC1"
  targetEntity: "kappa opioid receptor (OPRK1) (Homo sapiens (Human))"
  log10 of IC50: 2.20
- compound: "Cc1ccc2nc(N3CCC(NCC4CCCCC4)CC3)c(-c3nc(C)no3)cc2c1"
  targetEntity: "kappa opioid receptor (OPRK1) (Homo sapiens (Human))"
  log10 of IC50: 3.17
- compound: "Cc1noc(-c2cc3cc(F)ccc3nc2N2CCC(NC3CCOCC3)CC2)n1"
  targetEntity: "kappa opioid receptor (OPRK1) (Homo sapiens (Human))"
  log10 of IC50: 2.63
- compound: "COC(=O)c1cc(-c2ccsc2)cnc1N1CCC(NC2CCCCC2)CC1"
  targetEntity: "kappa opioid receptor (OPRK1) (Homo sapiens (Human))"
  log10 of IC50: 3.72
- compound: "COC(=O)c1cc(I)cnc1N1CCC(NC2CCCCC2)C(OC)C1 (stereo not shown)"
  targetEntity: "kappa opioid receptor (OPRK1) (Homo sapiens (Human))"
  log10 of IC50: 1.04
- compound: "COC(=O)c1cc(Br)cnc1N1CCC(NC2CCC(C)CC2)CC1 (stereo not shown)"
  targetEntity: "kappa opioid receptor (OPRK1) (Homo sapiens (Human))"
  log10 of IC50: 2.73
- compound: "Cc1cnc(N2CCC(NC3CCCC3)C(CO)C2)c(-c2nc(C)no2)c1 (stereo not shown)"
  targetEntity: "kappa opioid receptor (OPRK1) (Homo sapiens (Human))"
  log10 of IC50: 2.06
- compound: "COC1CN(c2nc3ccccc3cc2-c2nc(C)no2)CCC1NC1CCCCC1 (stereo not shown) [compound 292]"
  targetEntity: "kappa opioid receptor (OPRK1) (Homo sapiens (Human))"
  log10 of IC50: 1.52
- compound: "COC(=O)c1cc(F)cnc1N1CCC(NC2CCCCC2)CC1"
  targetEntity: "kappa opioid receptor (OPRK1) (Homo sapiens (Human))"
  log10 of IC50: 3.82
- compound: "COC(=O)c1cc(Br)cnc1N1CCC(NC2CCOCC2)C(CO)C1 (stereo not shown)"
  targetEntity: "kappa opioid receptor (OPRK1) (Homo sapiens (Human))"
  log10 of IC50: 2.10
- compound: "COC(=O)c1cc(Br)cnc1N1CCC(NC2CCCC2O)CC1 (stereo not shown)"
  targetEntity: "kappa opioid receptor (OPRK1) (Homo sapiens (Human))"
  log10 of IC50: 2.46
- compound: "CO[C@H]1CN(c2nc3c(C)c(F)ccc3cc2-c2nc(C)no2)CC[C@H]1NC1CCCCC1"
  targetEntity: "kappa opioid receptor (OPRK1) (Homo sapiens (Human))"
  log10 of IC50: 1.18
- compound: "CO[C@@H]1CN(c2nc3ccc(F)cc3cc2-c2nc(C)no2)CC[C@@H]1NC1CCCCC1"
  targetEntity: "kappa opioid receptor (OPRK1) (Homo sapiens (Human))"
  log10 of IC50: 1.43
- compound: "CCOC(=O)c1cc(Br)cnc1N1CCC(NC2CCCCC2)CC1"
  targetEntity: "kappa opioid receptor (OPRK1) (Homo sapiens (Human))"
  log10 of IC50: 2.11
- compound: "Cc1ccc2cc(-c3nc(C)no3)c(N3CCC(NC4CCCCC4)C(CO)C3)nc2c1 (stereo not shown)"
  targetEntity: "kappa opioid receptor (OPRK1) (Homo sapiens (Human))"
  log10 of IC50: 0.70
- compound: "CCOC(=O)c1c(Cl)cc(C)nc1N1CCC(N[C@@H]2CCCC[C@H]2O)CC1"
  targetEntity: "kappa opioid receptor (OPRK1) (Homo sapiens (Human))"
  log10 of IC50: 3.65
